Tested on: Bacillus subtilis
Assay: cleaved RNA product abundance (RNA/gDNA barcode ratio) relative to median wild-type variant (ratio to wild type); higher = more accumulation of the downstream cleavage product
Conditions: experiment (reporter, strain, medium): exp 4a: truncated aprE reporter, strain BJT201 with 2% xylose (RNase J1 expressed); cleavage site: cggR-gapA (positions -7 to +36 mutated)
Parameter threshold = 0.3. Response is T when cleaved RNA product abundance meets or exceeds it, else F.

Illustrative cases are given below, each with its answer.
{"biopolymer_sequence": "ACAGACGAAGGAGCCGCAAAGAAATTATTAATGAATGAATAATCCCTCAATATAAATATCTCTCACTTATTTAAA", "cat": "F"}
{"biopolymer_sequence": "ACAGACGAAGGAGCCGCGAAGAAGTTATTAAGAGATGAATAATCCCTCAATATAAATATCTCTCACTTATTTAAA", "cat": "F"}
{"biopolymer_sequence": "ACAGACGAAGGAGCCGCGAAGAAGTTATTAAGGGATGAATAATCACTCAATATAAATATCTCTCACTTATTTAAA", "cat": "F"}
{"biopolymer_sequence": "ACAGACGAAGGAGCCGCAAAGAAGTTATTAAGGGATGAATAATCCCTCGTTATAAATATCTCTCACTTATTTAAA", "cat": "F"}

Ask: Say whether "ACAGACGAAGGAGCCGCAAGAAGTTATTAGGGGATGAATAATCCCTCAATATAAATATCTCTCACTTATTTAAAG" shows cleaved RNA product abundance of 0.3 or more.
Reply: T

Ask: Check this sequence for cleaved RNA product abundance at or above 0.3: "ACAGACGAAGGAGCCGCAAAGAAGTTATTAAGGCATGAATAATCCCCCAATATAAATATCTCTCACTTATTTAAA"
Reply: F

Ask: // inclusive: cleaved RNA product abundance at least 0.3? input: "ACAGACGAAGGAGCCGCAAAGAAGTTATTAAGGAATGAATAATCCCTTAATATAAATATCTCTCACTTATTTAAA"
Reply: T

Ask: Form field: cleaved RNA product abundance at least 0.3? Entry: "ACAGACGAAGGAGCCGCAAAGAAGTTATTAAGGAATGAATAATCCCTCAATCTAAATATCTCTCACTTATTTAAA"
Reply: F

Ask: # check: cleaved RNA product abundance of "ACAGACGAAGGAGCCGCAAAGAAGTTATTAAGGGATTAATAATACCTCAATATAAATATCTCTCACTTATTTAAA" is greater than or equal to 0.3
Reply: F

Ask: Is it the case that "ACAGACGAAGGAGCCGCAAAGAAGTTTTTAAGGGATGAATATTCCCTCAATATAAATATCTCTCACTTATTTAAA" has cleaved RNA product abundance reaching or exceeding 0.3?
Reply: T

Ask: # bool: cleaved RNA product abundance of "ACAGACGAAGGAGCCGCACAGAAGTTATTAAGGGATGAATAATCCCTAAATATAAATATCTCTCACTTATTTAAA" >= 0.3
Reply: T

Ask: For this sequence, is measured cleaved RNA product abundance 0.3 or higher? "ACAGACGAAGGAGCCGCAAAGAAGTTATTAAGGGATTAATAATCCCTCAATATAAAGATCTCTCACTTATTTAAA"
Reply: T

Ask: Determine whether this sequence has cleaved RNA product abundance no lower than 0.3: "ACAGACGAAGGAGCCGCAAATAAGTTATTAAGCGATGAATAATCCCTCAATATAAATATCTCTCACTTATTTAAA"
Reply: F

Ask: Decide: is the reported value of cleaved RNA product abundance for "ACAGACGAAGGAGCCGCAAAGAACTAATTAAGGGATGAATAATCCCTCAATATAAATATCTCTCACTTATTTAAA" equal to or greater than 0.3?
Reply: T

Ask: Quick check: does "ACAGACGAAGGAGCCGCAAAAAAGTTCTTAAGGGATGAATAATCCCTCAATATAAATATCTCTCACTTATTTAAA" have cleaved RNA product abundance greater than or equal to 0.3?
Reply: F
